# System: Colletotrichum gloeosporioides
# experimentNotes: Antifungal activity against Glomerella cingulata on potato sucrose agar medium at 28 or 20 degC for 2 or 3 days
# Format: functional
// reported MIC for each item listed
propertyName: MIC (µg/mL)

>>> print(df.to_string())
                                  smilescode  propertyname  unitspec  valuemodifier  numericreadout
 0  CC[C@H]1CC[C@H](Cc2ccc(Cl)cc2)[C@@]1(O)Cn1cncn1           MIC     µg/mL              <             0.2
 1  CC(C)C[C@@H]1CC[C@H](Cc2ccc(Cl)cc2)[C@@]1(O)Cn1cncn1           MIC     µg/mL              =             3.1
 2  CC[C@@H]1CC[C@H](Cc2ccc(Cl)cc2)[C@@]1(O)Cn1cncn1           MIC     µg/mL              =             0.4
 3  CC(C)[C@@H]1CC[C@@H](Cc2ccc(Cl)cc2)[C@]1(O)Cn1cncn1           MIC     µg/mL              =              25
 4   O[C@@]1(Cn2cncn2)CCC[C@H]1Cc1ccc(Cl)cc1           MIC     µg/mL              >             100
 5  CCC[C@H]1CC[C@@H](Cc2ccc(Cl)cc2)[C@]1(O)Cn1cncn1           MIC     µg/mL              >             100
 6   O[C@]1(Cn2cncn2)CCC[C@@H]1Cc1ccc(Cl)cc1           MIC     µg/mL              =              25
 7  CC[C@H]1CC[C@@H](Cc2ccc(Cl)cc2)[C@]1(O)Cn1cncn1           MIC     µg/mL              =              25
 8  CCCC[C@H]1CC[C@@H](Cc2ccc(Cl)cc2)[C@]1(O)Cn1cncn1           MIC     µg/mL              >             100
 9  CC(C)[C@H]1CC[C@H](Cc2ccc(Cl)cc2)[C@@]1(O)Cn1cncn1           MIC     µg/mL              =             0.4
10  CCCC[C@@H]1CC[C@H](Cc2ccc(Cl)cc2)[C@@]1(O)Cn1cncn1           MIC     µg/mL              =             6.3
11  CC(C)C[C@H]1CC[C@@H](Cc2ccc(Cl)cc2)[C@]1(O)Cn1cncn1           MIC     µg/mL              >             100
12  C[C@H]1CC[C@@H](Cc2ccc(Cl)cc2)[C@]1(O)Cn1cncn1           MIC     µg/mL              >             100
